Where do the numbers come from? From patent US4791200A.

molecular target: parietal cell H^+ K^+ ATPase (Oryctolagus cuniculus, UniProt P27112); construct: determined in fundic mucosa from New Zealand white rabbits which were homogenized; from tissue; host or cells: fundic mucosa of New Zealand white rabbits, homogenized; membrane protein; assay: Inhibition of Parietal Cell H^+ K^+ ATPase; format: biochemical, New Zealand white rabbits; conditions: at 10^-4 M; read-out: % Inhibition at Concentration
Sequence (P27112 2-1035 limits assumed): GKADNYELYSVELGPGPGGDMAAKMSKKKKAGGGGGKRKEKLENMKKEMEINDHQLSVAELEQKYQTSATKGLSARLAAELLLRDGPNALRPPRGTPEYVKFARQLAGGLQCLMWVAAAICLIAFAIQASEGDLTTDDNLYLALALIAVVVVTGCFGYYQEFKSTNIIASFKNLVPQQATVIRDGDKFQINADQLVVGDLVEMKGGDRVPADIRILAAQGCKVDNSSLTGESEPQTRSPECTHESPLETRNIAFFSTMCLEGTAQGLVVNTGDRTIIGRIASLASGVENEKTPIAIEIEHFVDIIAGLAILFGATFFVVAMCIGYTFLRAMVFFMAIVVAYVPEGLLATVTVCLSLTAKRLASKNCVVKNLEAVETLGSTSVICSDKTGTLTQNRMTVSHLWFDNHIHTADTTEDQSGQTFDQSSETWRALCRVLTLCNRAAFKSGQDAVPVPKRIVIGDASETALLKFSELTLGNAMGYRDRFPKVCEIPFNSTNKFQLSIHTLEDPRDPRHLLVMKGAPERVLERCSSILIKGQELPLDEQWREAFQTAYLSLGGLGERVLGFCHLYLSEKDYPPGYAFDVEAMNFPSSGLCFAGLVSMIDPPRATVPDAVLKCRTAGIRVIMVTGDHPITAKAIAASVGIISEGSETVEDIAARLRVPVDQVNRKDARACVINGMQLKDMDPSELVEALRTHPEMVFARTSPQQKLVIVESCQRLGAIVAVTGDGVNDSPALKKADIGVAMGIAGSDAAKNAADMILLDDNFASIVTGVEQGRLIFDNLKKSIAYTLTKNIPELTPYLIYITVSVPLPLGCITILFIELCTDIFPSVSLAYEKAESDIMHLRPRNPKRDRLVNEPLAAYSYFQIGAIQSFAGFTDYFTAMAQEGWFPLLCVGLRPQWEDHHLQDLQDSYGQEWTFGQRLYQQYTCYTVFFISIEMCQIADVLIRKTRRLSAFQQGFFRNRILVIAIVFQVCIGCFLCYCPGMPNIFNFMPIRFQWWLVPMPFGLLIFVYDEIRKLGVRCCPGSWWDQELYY
Sequence (P18597 whole entry partner): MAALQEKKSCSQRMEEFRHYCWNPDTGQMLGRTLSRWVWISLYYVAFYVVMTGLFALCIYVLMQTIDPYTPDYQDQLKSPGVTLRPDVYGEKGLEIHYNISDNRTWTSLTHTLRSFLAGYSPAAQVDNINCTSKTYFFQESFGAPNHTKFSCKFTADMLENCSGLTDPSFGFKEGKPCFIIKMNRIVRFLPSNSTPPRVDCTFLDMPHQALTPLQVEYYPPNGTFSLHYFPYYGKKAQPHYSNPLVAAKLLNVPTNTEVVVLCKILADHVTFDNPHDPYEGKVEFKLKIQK
The entries below are paired with their reported inhibition at 100 µM.
Supply the numeric figure in %, leaving out any unit text.

Some solved entries appear below for comparison.
[
  {
    "compound": "CCCN(CCC)CCCOc1ccc(-c2csc(-c3ccccc3)n2)cc1 [Example 5]",
    "studyTarget": "parietal cell H^+ K^+ ATPase (Oryctolagus cuniculus, UniProt P27112)",
    "measureUnit": "%",
    "inhibition at 100 µM": 60
  },
  {
    "compound": "c1ccc(-c2nc(-c3ccc(OCCCCn4ccnc4)cc3)cs2)cc1 [Example 14]",
    "studyTarget": "parietal cell H^+ K^+ ATPase (Oryctolagus cuniculus, UniProt P27112)",
    "measureUnit": "%",
    "inhibition at 100 µM": 0
  },
  {
    "compound": "CCCCN(CCCC)CCCOc1ccc(-c2csc(-c3cc(OC)cc(OC)c3)n2)cc1 [Example 18]",
    "studyTarget": "parietal cell H^+ K^+ ATPase (Oryctolagus cuniculus, UniProt P27112)",
    "measureUnit": "%",
    "inhibition at 100 µM": 30
  },
  {
    "compound": "CCCCN(CCCC)CCCOc1ccc(-c2csc(-c3ccc(Cl)cc3)n2)cc1 [Example 16]",
    "studyTarget": "parietal cell H^+ K^+ ATPase (Oryctolagus cuniculus, UniProt P27112)",
    "measureUnit": "%",
    "inhibition at 100 µM": 55
  },
  {
    "compound": "CCCCN(CCCC)CCCOc1ccc(-c2csc(-c3ccccc3)n2)cc1 [Example 1]",
    "studyTarget": "parietal cell H^+ K^+ ATPase (Oryctolagus cuniculus, UniProt P27112)",
    "measureUnit": "%",
    "inhibition at 100 µM": 47
  },
  {
    "compound": "CN(CCCOc1ccc(-c2csc(-c3ccccc3)n2)cc1)Cc1ccccc1 [Example 11]",
    "studyTarget": "parietal cell H^+ K^+ ATPase (Oryctolagus cuniculus, UniProt P27112)",
    "measureUnit": "%",
    "inhibition at 100 µM": 39
  },
  {
    "compound": "CCCCN(CCCC)CCOc1ccc(-c2csc(-c3ccccc3)n2)cc1 [Example 12]",
    "studyTarget": "parietal cell H^+ K^+ ATPase (Oryctolagus cuniculus, UniProt P27112)",
    "measureUnit": "%",
    "inhibition at 100 µM": 44
  }
]

Now look at this entry.
Query (compound): CCCCN(CCCC)CCCOc1ccc(-c2csc(-c3ccccc3)n2)cc1C [Example 26] ; field requested: inhibition at 100 µM
23

----------
target: parietal cell H^+ K^+ ATPase (Oryctolagus cuniculus); construct: determined in fundic mucosa from New Zealand white rabbits which were homogenized; from tissue; host or cells: fundic mucosa of New Zealand white rabbits, homogenized; membrane protein; test: Inhibition of Parietal Cell H^+ K^+ ATPase; type: biochemical, New Zealand white rabbits; details: at 10^-4 M; read-out: % Inhibition at Concentration
Please mark condition met if the recorded inhibition at 100 µM is equal to or greater than 40%, and condition not met if it falls below.

[
  {
    "smilesStr": "CCCCN(CCCC)CCCOc1ccc(-c2csc(-c3ccc(OC)cc3)n2)cc1",
    "category": "condition not met"
  },
  {
    "smilesStr": "CCCCN(CCCC)CCCOc1ccc(-c2nc(-c3ccccc3)sc2C)cc1",
    "category": "condition met"
  },
  {
    "smilesStr": "CCCCN(CCCC)CCCCOc1ccc(-c2csc(-c3ccccc3)n2)cc1",
    "category": "condition met"
  }
]

Next item in the queue.
Quick check: does CCCCN(CCCC)CCCOc1c(Cl)cc(-c2csc(-c3ccccc3)n2)cc1Cl have inhibition at 100 µM greater than or equal to 40%?
condition not met
